Numbers sourced from patent US12528812B2.

# systemTested: recombinant human JAK1 kinase domain protein (Residues 854-1154) (Homo sapiens)
# Construct: human JAK1 kinase domain protein (Residues 854-1154)
# Sequence (P23458 854-1154): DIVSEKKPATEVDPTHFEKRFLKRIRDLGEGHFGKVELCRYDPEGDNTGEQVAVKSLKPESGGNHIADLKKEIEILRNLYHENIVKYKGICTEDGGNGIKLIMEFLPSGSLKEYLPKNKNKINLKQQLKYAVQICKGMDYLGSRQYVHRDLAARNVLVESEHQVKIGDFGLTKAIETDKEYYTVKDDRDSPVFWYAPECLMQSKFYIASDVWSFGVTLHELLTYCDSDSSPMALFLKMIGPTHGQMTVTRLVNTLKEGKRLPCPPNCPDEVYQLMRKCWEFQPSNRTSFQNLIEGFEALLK
# assayProcedure: JAK1 biochemical assay (LabChip mobility shift, Ki)
# conditionDescription: read-out: Biochem JAK1 Ki
Could you please report measured Ki for the items listed next?

Some solved entries appear below for comparison.
molecule	systemTested	experimentalResult
CCn1cc(NC(=O)c2cnn3cccnc23)c(-c2cc(Oc3cc(F)cc(C4(O)CN(C)C4)c3)ccc2OC(F)F)n1	recombinant human JAK1 kinase domain protein (Residues 854-1154) (Homo sapiens)	0.43 nM
O=C(Nc1c[nH]nc1-c1cc(Oc2cccc(CNC3COC3)c2)ccc1OC(F)F)c1cnn2cccnc12	recombinant human JAK1 kinase domain protein (Residues 854-1154) (Homo sapiens)	1 nM
Cn1cc(NC(=O)c2cnn3cccnc23)c(-c2cc(Oc3cccc(CNC(CO)CO)c3)ccc2OC(F)F)n1	recombinant human JAK1 kinase domain protein (Residues 854-1154) (Homo sapiens)	0.76 nM

Give Ki for each of the items listed below.
1. Cc1nn(C)cc1Oc1ccc(OC(F)F)c(-c2nn(C)cc2NC(=O)c2cnn3cccnc23)c1
2. Cn1cc(NC(=O)c2cnn3cccnc23)c(-c2cc(Oc3ccc(CC(=O)N4CCC4)cc3)ccc2OC(F)F)n1
3. Cn1cc(NC(=O)c2cnn3cccnc23)c(-c2cc(Oc3cc(C(F)(F)F)cc(C4(O)CNC4)c3)ccc2OC(F)F)n1
4. Cc1n[nH]cc1Oc1ccc(OC(F)F)c(-c2nn(C)cc2NC(=O)c2cnn3cccnc23)c1
5. Cc1ccc(Oc2ccc(OC(F)F)c(-c3nn(CC4CCCN4C)cc3NC(=O)c3cnn4cccnc34)c2)cc1C(=O)N(C)C (racemic)
6. CN1CCC(n2cc(Oc3ccc(OC(F)F)c(-c4nn(C)cc4NC(=O)c4cnn5cccnc45)c3)cn2)CC1
7. CN(C)C(=O)c1ccc(Oc2ccc(OC(F)F)c(-c3n[nH]cc3NC(=O)c3cnn4cccnc34)c2)cc1
8. COC1(c2cccc(Oc3ccc(OC(F)F)c(-c4nn(C)cc4NC(=O)c4cnn5cccnc45)c3)c2)CN(C)C1

Result string:
1. 0.46 nM
2. 0.28 nM
3. 0.49 nM
4. 0.29 nM
5. 1.3 nM
6. 2.5 nM
7. 0.46 nM
8. 0.94 nM
